The measurements presented in this section are drawn from patent US20240190849A1.

# Tested on: SNU-16 (Gastric Carcinoma), FGFR2 amplification
# METHOD DESCRIPTION: Cancer cell viability assay (Cell Titer-Glo), SNU-16
# Assay type: cell-based
# CONDITION INFO: Homo sapiens, SNU-16 cells, 72 hours, read-out: SNU16 FGFR2 (IC50 nM)
MEASURED METRIC: IC50

Examples with their reported IC50 follow.
MOLECULE: C=CC(=O)Nc1ccc2c(-c3ccnc(Nc4cnn(CCO)c4)n3)cn(C)c2c1 [Example 106]
ASSAY SYSTEM: SNU-16 (Gastric Carcinoma), FGFR2 amplification
MEASURED METRIC: IC50
ENDPOINT RESULT: 0.1 to 100 nM
--
MOLECULE: Cc1cnc(Nc2cnn(CCO)c2)nc1-n1cc(C)c2cc(NC(=O)/C=C/CN(C)C)ccc21 [Example 122]
ASSAY SYSTEM: SNU-16 (Gastric Carcinoma), FGFR2 amplification
MEASURED METRIC: IC50
ENDPOINT RESULT: 0.1 to 100 nM
--
MOLECULE: C=CC(=O)Nc1ccc2c(c1)c(C)cn2-c1nc(Nc2cn(C)nc2C)ncc1C [Example 187]
ASSAY SYSTEM: SNU-16 (Gastric Carcinoma), FGFR2 amplification
MEASURED METRIC: IC50
ENDPOINT RESULT: 0.1 to 100 nM
--
MOLECULE: C=CC(=O)Nc1ccc2c(-c3nc(Nc4cnn(CCO)c4)ncc3Cl)cn(C)c2c1 [Example 127]
ASSAY SYSTEM: SNU-16 (Gastric Carcinoma), FGFR2 amplification
MEASURED METRIC: IC50
ENDPOINT RESULT: 0.1 to 100 nM
--
MOLECULE: C=CC(=O)Nc1ccc2c(c1)c(C)cn2-c1nc(Nc2cc(C)nn2C)ncc1C [Example 64]
ASSAY SYSTEM: SNU-16 (Gastric Carcinoma), FGFR2 amplification
MEASURED METRIC: IC50
ENDPOINT RESULT: 0.1 to 100 nM
--
MOLECULE: C=CC(=O)Nc1ccc2c(-c3ccnc(Nc4cc(C)n(C)n4)n3)cn(C)c2c1 [Example 103]
ASSAY SYSTEM: SNU-16 (Gastric Carcinoma), FGFR2 amplification
MEASURED METRIC: IC50
ENDPOINT RESULT: 0.1 to 100 nM
--
MOLECULE: C=CC(=O)Nc1ccc2c(-c3ccnc(Nc4ccc(N5CCOCC5)cc4)n3)cn(C)c2c1 [Example 53]
ASSAY SYSTEM: SNU-16 (Gastric Carcinoma), FGFR2 amplification
MEASURED METRIC: IC50
ENDPOINT RESULT: 0.1 to 100 nM
--
MOLECULE: C=CC(=O)Nc1cnc2c(c1)c(C)cn2-c1nc(Nc2ccn(C)n2)ncc1C [Example 97]
ASSAY SYSTEM: SNU-16 (Gastric Carcinoma), FGFR2 amplification
MEASURED METRIC: IC50
ENDPOINT RESULT: 0.1 to 100 nM

Quickly give me recorded IC50 for C=CC(=O)Nc1ccc2c(-c3ccnc(Nc4cnn(C)c4)n3)cn(C)c2c1 [Example 201] 0.1 to 100 nM

Quickly give me recorded IC50 for C=CC(=O)Nc1ccc2c(-c3nc(Nc4cn(C)nc4C)ncc3F)cn(C)c2c1 [Example 154] 0.1 to 100 nM

Quickly give me recorded IC50 for C=CC(=O)Nc1ccc2c(c1)c(C)cn2-c1nc(Nc2cccnc2C)ncc1F [Example 153] 0.1 to 100 nM

Quickly give me recorded IC50 for C=CC(=O)Nc1ccc2c(-c3nc(Nc4cnn(CCO)c4)ncc3F)cn(C)c2c1 [Example 128] 0.1 to 100 nM

Quickly give me recorded IC50 for C=CC(=O)Nc1cnc2c(c1)c(C)cn2-c1nc(Nc2cnn(CCO)c2)ncc1C [Example 125] 0.1 to 100 nM

Quickly give me recorded IC50 for C=CC(=O)Nc1ccc2c(-c3ccnc(Nc4cnn(C5CC5)c4)n3)cn(C)c2c1 [Example 178] 0.1 to 100 nM

Quickly give me recorded IC50 for C=CC(=O)Nc1ccc2c(c1)c(C)cn2-c1nc(Nc2cnn(CCCO)c2)ncc1F [Example 160] 0.1 to 100 nM

Quickly give me recorded IC50 for C=CC(=O)Nc1ccc2c(c1)c(C)cn2-c1nc(Nc2cn(CC(C)(C)O)nc2C)ncc1F [Example 182] 0.1 to 100 nM

Quickly give me recorded IC50 for C=CC(=O)Nc1ccc2c(c1)c(C)cn2-c1nc(Nc2cnc(C)nc2C)ncc1F [Example 150] 0.1 to 100 nM

Quickly give me recorded IC50 for C=CC(=O)Nc1ccc2c(c1)c(C)cn2-c1nc(Nc2cn(CCO)nc2C)ncc1F [Example 176] 0.1 to 100 nM

Quickly give me recorded IC50 for C=CC(=O)Nc1ccc2c(c1)c(C)cn2-c1nc(Nc2cnn(CC(C)O)c2)ncc1F (centres unmarked) [Example 158] 0.1 to 100 nM

Quickly give me recorded IC50 for C=CC(=O)Nc1cnc2c(c1)c(C)cn2-c1nc(Nc2cc(C)n(C(=O)OC(C)(C)C)n2)ncc1C [Example 124] 0.1 to 100 nM

Quickly give me recorded IC50 for C=CC(=O)Nc1ccc2c(c1)c(C)cn2-c1nc(Nc2ccn(CCO)n2)ncc1C [Example 100] 0.1 to 100 nM

Quickly give me recorded IC50 for C=CC(=O)Nc1ccc2c(c1)c(C)cn2-c1nc(Nc2cnn(C)c2)ncc1F [Example 61] 0.1 to 100 nM

Quickly give me recorded IC50 for C=CC(=O)Nc1ccc2c(c1)c(C)cn2-c1nc(Nc2cnn(C3CCOC3)c2)ncc1F (centres unmarked) [Example 215] 0.1 to 100 nM
